Tested on: MDA-MB-468 breast
Assay: NCI tumour cell line growth inhibition, 48 h; in the data active = GI50 below about 0.43 µM; inactive = the rest
Bench note: report the call from true = active, false = inactive

Record excerpt, results attached:
Nc1c(C(=O)Nc2cccc3ccccc23)sc2nc3c(cc12)CCCCC3 ... true
Cc1nn(-c2ccccc2)cc1/C=N/Nc1nc(Nc2ccccc2)nc(Nc2ccc(S(N)(=O)=O)cc2)n1 ... false
Cc1c(N(C(=O)c2cc(-c3cc(Cl)ccc3C(=O)N3Cc4ccccc4C[C@H]3CN3CCOCC3)n(C)c2C)c2ccc(O)cc2)cc(C#N)n1C ... false
Fc1ccc(Nc2ccc3cc(OCCCN4CCOCC4)ccc3n2)cc1F ... false
Cc1cc(Nc2nc(N3CCOCC3)nc3ccccc23)n[nH]1 ... false

Task item: Tell me the recorded outcome of this test for Cc1ccc(-c2nc3nc(-c4ccc(Cl)cc4)nc(N4CCCNCC4)c3o2)cc1 .
Reply: false

Task item: Tell me the recorded outcome of this test for C=C1C(=O)O[C@H]2[C@H]1CC/C(Cn1cc(Cn3ccc4cc(Cl)ccc43)nn1)=C\CC[C@@]1(C)O[C@@H]21 .
Reply: false

Task item: Tell me the recorded outcome of this test for Cc1cccc(Oc2ccc(Nc3ncnc4ccc(NC(=O)CN5CCN(C)CC5)cc34)cc2Cl)c1 .
Reply: false

Task item: Tell me the recorded outcome of this test for O=C(Nc1nc(-c2ccc(Cl)cc2)cs1)c1ccc(O)c(O)c1 .
Reply: false

Task item: Tell me the recorded outcome of this test for Nc1nc(N)c2c(n1)NC(c1ccc(C(F)(F)F)cc1)CC(c1ccc(Nc3nc(NCCO)nc(Nc4ccc(Cl)cc4)n3)cc1)=N2 (stereo not given) .
Reply: false

----------
System: MDA-MB-468 breast
Test: NCI tumour cell line growth inhibition, 48 h; in the data active means GI50 below about 0.43 µM; inactive means the rest
Bench note: report the call from active, inactive

C[C@]12CC[C@H]3[C@@H](CC=C4C[C@@H](O)CC[C@@]43C)[C@@H]1C/C(=C\c1cccc(OCCCn3ccnc3)c1)[C@@H]2O ... inactive
O=C(/C=C/C12c3ccccc3C(c3ccccc31)C1C(=O)NC(=O)C12)c1ccco1 (stereo not drawn) ... inactive

Task item: Tell me the recorded outcome of this test for CC(=O)O[C@H]1C(=O)[C@@]2(C)[C@H]([C@H](OC(=O)c3ccccc3)[C@]3(O)C[C@H](OC(=O)[C@H](OC(=O)CCC(=O)OC4CCC(S/N=C(N)/N=C(\N)N(C)C)CC4)[C@@H](NC(=O)c4ccccc4)c4ccccc4)C(C)=C1C3(C)C)[C@]1(OC(C)=O)CO[C@@H]1C[C@@H]2O (stereo partly drawn) .
Reply: active

----------
Record form. Attribute: log10 of TGI. Fill in for each entry.
Tested on: MDA-MB-468 breast
Assay: NCI tumour cell line growth inhibition, 48 h
All values: log10 TGI [µM].

Known results for molecules:
COc1ccc(C(=O)c2ccc(OC)cc2OC)cc1 ... 0.59
CCN(CC)CCCC(C)N/C(c1cccc(OC)c1)=c1\c(=O)[nH]n(-c2c3ccccc3nc3ccccc23)c(=O)\c1=C(/NC(C)CCCN(CC)CC)c1cccc(OC)c1 (configuration not stated) ... 0.49
C[C@]12CC[C@H](O)C[C@@H]1CC[C@@H]1[C@@H]2CC[C@@]2(C)[C@H]1CC[C@@H]2[C@](C)(O)CCc1ccc(F)cc1 ... 1.45
O=C1CN2CCC1C/C2=C\c1ccnc2c(Cl)cccc12 (configuration not stated) ... 1.76

Look at each molecule and report its log10 of TGI.
1. Cc1nn(-c2ccccc2)cc1/C=N/Nc1nc(Nc2ccccc2)nc(Nc2ccc(S(N)(=O)=O)cc2)n1
2. O=C(/C=C/C12c3ccccc3C(c3ccccc31)C1C(=O)NC(=O)C12)c1ccco1 (configuration not stated)
3. Cc1cc2c(c(O)c1Br)-c1ncoc1C(=O)[C@]1(C)CC[C@H](C(C)C)[C@H]21
4. O=C(Nc1nc(-c2ccc(Cl)cc2)cs1)c1ccc(O)c(O)c1
5. C=C1C(=O)O[C@H]2[C@H]1CC/C(COC(=O)N[C@@H](Cc1c[nH]c3ccccc13)C(=O)OC)=C\CC[C@@]1(C)O[C@@H]21

Reply:
[0.51, 0.69, 0.82, 1.41, 0.48]

Look at each molecule and report its log10 of TGI.
1. CCC[C@H](Nc1nc(-c2ccc(NC(=O)NCC)c(OC)c2)ncc1C)c1cccnc1
2. Cc1ccc(-c2nc3nc(-c4ccc(Cl)cc4)nc(N4CCCNCC4)c3o2)cc1
3. C=C1C(=O)O[C@H]2[C@H]1CC/C(COC(=O)NCCc1c[nH]c3ccccc13)=C\CC[C@@]1(C)O[C@@H]21

Reply:
-1.15
0.53
0.64

// data source = PubChem BioAssay (NCI)
